Each record here notes measured neutralization IC50.
TEST_TARGET: Env of HIV-1 strain 250-4 (HIV-1)
RUN_DESCRIPTION: cell-based or functional assay
MEASUREMENT_KIND: neutralization IC50

INSERT INTO measurements (binder, reading) VALUES
  ('γ22κ11 (antibody, V domains shown) VH: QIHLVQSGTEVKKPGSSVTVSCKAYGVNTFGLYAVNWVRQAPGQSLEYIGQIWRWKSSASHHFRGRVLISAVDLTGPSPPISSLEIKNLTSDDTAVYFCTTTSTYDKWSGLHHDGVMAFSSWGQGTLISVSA VL: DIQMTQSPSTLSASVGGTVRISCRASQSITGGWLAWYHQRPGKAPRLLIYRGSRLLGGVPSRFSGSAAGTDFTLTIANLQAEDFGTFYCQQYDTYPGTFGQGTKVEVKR', '> 15 µg/mL'),
  ('γ44κ11 (antibody, V domains shown) VH: QIHLVQSGTEVKKPGSSVTVSCKAYEVNTFGLYAVNWVRQAPGQSLEYIGQIWRWKSSASHHFRGRVLISAVDLTGSSPPISSLEIKNVTSDDTAVYFCTTTSTHDKWSGLHHDGVMAFSSWGQGTLISVSA VL: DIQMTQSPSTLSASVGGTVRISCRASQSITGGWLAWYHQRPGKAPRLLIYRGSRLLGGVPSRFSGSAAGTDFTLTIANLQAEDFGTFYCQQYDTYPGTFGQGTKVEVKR', '> 15 µg/mL'),
  ('γ23κ5 (antibody, V domains shown) VH: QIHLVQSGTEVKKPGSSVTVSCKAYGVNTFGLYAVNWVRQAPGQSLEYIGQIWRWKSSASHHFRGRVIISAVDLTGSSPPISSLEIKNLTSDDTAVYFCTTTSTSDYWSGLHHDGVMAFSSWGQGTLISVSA VL: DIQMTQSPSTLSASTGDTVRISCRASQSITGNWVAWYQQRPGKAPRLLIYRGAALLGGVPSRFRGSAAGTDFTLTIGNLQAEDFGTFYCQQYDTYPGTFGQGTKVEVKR', '> 15 µg/mL'),
  ('8ANC195 IgG (antibody, V domains shown) VH: QIHLVQSGTEVKKPGSSVTVSCKAYGVNTFGLYAVNWVRQAPGQSLEYIGQIWRWKSSASHHFRGRVLISAVDLTGSSPPISSLEIKNLTSDDTAVYFCTTTSTYDKWSGLHHDGVMAFSSWGQGTLISVSA VL: DIQMTQSPSTLSASIGDTVRISCRASQSITGNWVAWYQQRPGKAPRLLIYRGAALLGGVPSRFSGSAAGTDFTLTIGNLQAEDFGTFYCQQYDTYPGTFGQGTKVEV', '> 50 µg/mL'),
  ('γ59κ18 (antibody, V domains shown) VH: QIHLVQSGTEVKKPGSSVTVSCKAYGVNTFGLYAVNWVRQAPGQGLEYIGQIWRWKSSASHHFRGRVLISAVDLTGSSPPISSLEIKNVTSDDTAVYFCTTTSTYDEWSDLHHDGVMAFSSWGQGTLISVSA VL: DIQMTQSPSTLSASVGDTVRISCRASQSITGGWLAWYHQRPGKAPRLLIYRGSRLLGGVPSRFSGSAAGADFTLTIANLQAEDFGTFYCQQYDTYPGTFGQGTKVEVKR', '> 15 µg/mL');

Values from patent US20180171001A1
